Values compiled from patent US6734212B2.

Measured IC50, listed per entry.
Target: E. coli Proteinase In (Escherichia coli, UniProt P27298)
Construct: We detected a single activity and had purified it to homogeneity; made in house; host or cells: endogenous enzyme purified from E. coli extracts (not recombinant)
Sequence (P27298 whole entry): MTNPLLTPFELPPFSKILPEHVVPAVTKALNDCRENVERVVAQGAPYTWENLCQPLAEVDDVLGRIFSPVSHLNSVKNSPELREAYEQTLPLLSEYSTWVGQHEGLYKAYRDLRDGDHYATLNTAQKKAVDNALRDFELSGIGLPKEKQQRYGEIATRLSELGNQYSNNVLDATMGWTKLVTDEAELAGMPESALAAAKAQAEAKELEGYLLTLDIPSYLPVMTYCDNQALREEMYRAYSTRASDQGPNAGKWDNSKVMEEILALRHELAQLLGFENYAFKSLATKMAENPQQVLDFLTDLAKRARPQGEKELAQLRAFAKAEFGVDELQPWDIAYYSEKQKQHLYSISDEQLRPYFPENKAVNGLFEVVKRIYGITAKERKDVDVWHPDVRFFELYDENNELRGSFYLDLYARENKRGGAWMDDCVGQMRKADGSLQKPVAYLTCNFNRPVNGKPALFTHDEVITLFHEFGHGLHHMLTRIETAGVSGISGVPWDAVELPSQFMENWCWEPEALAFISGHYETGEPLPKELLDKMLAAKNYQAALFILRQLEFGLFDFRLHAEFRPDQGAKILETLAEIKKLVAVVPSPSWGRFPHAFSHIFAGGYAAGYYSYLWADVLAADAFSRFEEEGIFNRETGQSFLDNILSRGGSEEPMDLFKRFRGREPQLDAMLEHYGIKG
Assay overview: Inhibition of purified E. coli proteinase In (fluorogenic substrate Boc-Val-Pro-Arg-NH-Mec)
Type: biochemical
Form entry: value (µM) — number only.

Consider the compound shown here: N=C(N)NCC1CCC(C(=O)Oc2ccc(-c3ccccc3)cc2)CC1 (centres unmarked) [BP01] What is its recorded IC50? 17

Sample CC(C)(C)c1ccc(OC(=O)C2CCC(CNC(=N)N)CC2)cc1 (centres unmarked) [PH04] — what was its IC50? 38

Item under review: N=C(N)NCC1CCC(C(=O)Oc2ccccc2-c2ccccc2)CC1 (centres unmarked) [BP02] . Reported IC50? 83

---
Would you mind telling me what IC50 value was observed for N=C(N)NCC1CCC(C(=O)Oc2c(Cl)cc(Cl)cc2Cl)CC1 (centres unmarked) [PH06] ? 35

If you can, please state the reported IC50 value of N=C(N)NCC1CCC(C(=O)Oc2ccc(Cl)cc2Cl)CC1 (centres unmarked) [PH05] . 62
